Where do these numbers come from? They come from patent US9695155B2.

Test system: wild poinsettia
assay_name: Test E preemergence
Type: in vivo, Euphorbia heterophylla
setup_conditions: 125 g ai/ha, scale 0 to 100, 0 no effect, 100 complete control
// reported Plant response rating, Poinsettia, Wild per item

chemical_string	target_desc	Plant response rating, Poinsettia, Wild
FC(F)(F)c1cnn(-c2ccccc2Oc2ncc(Cl)cn2)c1	wild poinsettia	50
FC(F)(F)c1cnn(-c2ccccc2Oc2ncc(Br)cn2)c1	wild poinsettia	0
FC(F)(F)COc1cnn(-c2ccccc2Oc2ncc(Cl)cn2)c1	wild poinsettia	25
FC(F)(F)c1cnn(-c2c(Cl)cccc2Oc2ncc(Cl)cn2)c1	wild poinsettia	25
Clc1cnc(Oc2ccccc2-n2cc(Br)cn2)nc1	wild poinsettia	0

###

// reported Plant response rating, Ducksalad per item
Tested on: Heteranthera limosa
assay_name: Test B flooded paddy test
Format: in vivo
setup_conditions: Flood, 250 g ai/ha; 0 to 100 scale where 0 is no effect and 100 is complete control
Method: Plant species in the flooded paddy test selected from rice (Oryza sativa), sedge, umbrella (small-flower umbrella sedge, Cyperus difformis), (Heteranthera limosa), and barnyardgrass (Echinochloa crus-galli) were grown to the 2-leaf stage for testing. […] Treated plants and controls were maintained in a greenhouse for 13 to 15 days, after which time all species were compared to controls and visually evaluated. […]

compound	target_desc	Plant response rating, Ducksalad
Cc1ccc(Oc2ncc(Cl)cn2)c(-n2cc(Br)cn2)c1 [Compound 40]	Heteranthera limosa	80
CC#Cc1cnn(-c2ccccc2Oc2ncc(Cl)cn2)c1 [Compound 189]	Heteranthera limosa	70
N#Cc1cccc(Oc2ncc(Cl)cn2)c1-n1ccnc1 [Compound 261]	Heteranthera limosa	0
CC(C)Oc1cnn(-c2c(Cl)cccc2Oc2ncc(Cl)cn2)c1 [Compound 103]	Heteranthera limosa	0
C#Cc1cnc(Oc2cccc(C#N)c2-n2cc(Br)cn2)nc1 [Compound 215]	Heteranthera limosa	0
FC(F)(F)c1cnn(-c2c(Cl)cccc2Oc2ncc(Cl)cn2)c1 [Compound 167]	Heteranthera limosa	100
Cc1cc(C(F)F)nn1-c1ccccc1Oc1ncc(Cl)cn1 [Compound 267]	Heteranthera limosa	0
N#Cc1cnn(-c2c(CF)cccc2Oc2ncc(Cl)cn2)c1 [Compound 242]	Heteranthera limosa	70
CC(C)(C)c1cnn(-c2c(C#N)cccc2Oc2ncc(Cl)cn2)c1 [Compound 82]	Heteranthera limosa	30
N#Cc1cccc(Oc2ncc(I)cn2)c1-n1cc(Cl)cn1 [Compound 75]	Heteranthera limosa	60
O=Cc1cccc(Oc2ncc(Cl)cn2)c1-n1cc(C(F)(F)F)cn1 [Compound 171]	Heteranthera limosa	0
CCCc1cnc(Oc2cccc(C#N)c2-n2cc(Br)cn2)nc1 [Compound 131]	Heteranthera limosa	0
Fc1cnc(Oc2cccc(C(F)F)c2-n2cc(Br)cn2)nc1 [Compound 112]	Heteranthera limosa	90
FC(F)(F)c1cnc(Oc2ccccc2-n2cc(Cl)cn2)nc1 [Compound 6]	Heteranthera limosa	65
FCc1cccc(Oc2ncc(F)cn2)c1-n1cc(C(F)(F)F)cn1 [Compound 118]	Heteranthera limosa	90
FCc1cccc(Oc2ncc(Cl)cn2)c1-n1cc(Br)cn1 [Compound 83]	Heteranthera limosa	45
Fc1cccc(Oc2ncc(Cl)cn2)c1-n1cc(I)cn1 [Compound 179]	Heteranthera limosa	80

###

// reported Nutsedge, Yellow plant response rating per item
Tested on: yellow nutsedge
assay_name: Test C preemergence
Type: in vivo, Cyperus esculentus
setup_conditions: 16 g ai/ha, preemergence; scale 0 to 100 (0 no effect, 100 complete control)
assay_readout: Nutsedge, Yellow plant response rating

chemical_string	test_value
CCOc1cnn(-c2ccccc2Oc2ncc(Cl)cn2)c1	0
CCOc1cnn(-c2c(C#N)cccc2Oc2ncc(Cl)cn2)c1	5
N#Cc1cccc(Oc2ncc(Br)cn2)c1-n1cc(I)cn1	0
N#Cc1cccc(Oc2ncc(F)cn2)c1-n1cc(I)cn1	0
N#Cc1cn(-c2c(Br)cccc2Oc2ncc(Cl)cn2)nn1	0
FCc1cccc(Oc2ncc(Cl)cn2)c1-n1cc(Cl)cn1	0
N#Cc1cnn(-c2c(Oc3ncc(Cl)cn3)cccc2C(F)F)c1	0
Cc1cnc(Oc2cccc(C#N)c2-n2cc(I)cn2)nc1	0
Fc1cnc(Oc2cccc(C(F)F)c2-n2cc(Br)cn2)nc1	0
CCOc1cnn(-c2c(C#N)cccc2Oc2ncc(F)cn2)c1	0
